- System: A549 NSCLC
- measurement protocol: NCI tumour cell line growth inhibition, 48 h; in the data active = GI50 below about 0.43 µM; inactive = the rest
Possible outcomes: active, inactive

{"molecule": "CC1OC2CC(=O)OC2C2=C1C(=O)c1c(O)c3c(c(O)c1C2=O)C1CC(O)C3(O)C(C)O1 (stereo not given)", "category": "inactive"}
{"molecule": "COc1cc(-c2cn(-c3ccc(Cl)cc3)c(C)c2C(=O)C(F)(F)F)cc(OC)c1OC", "category": "inactive"}
{"molecule": "COc1c(N2CCN(CN3C(=O)C(=Nc4ccc(S(=O)(=O)Nc5ncccn5)cc4)c4ccccc43)C(C)C2)c(F)cc2c(=O)c(C(=O)O)cn(C3CC3)c12 (stereo not given)", "category": "inactive"}
{"molecule": "C[C@@H]1COCCN1c1cc(C2(S(C)(=N)=O)CC2)nc(-c2ccnc3[nH]ccc23)n1 (stereo not given in full)", "category": "inactive"}
{"molecule": "COC(=O)CNC(=O)[C@@H](OC)[C@@H]1Cc2cc3cc(OC4CC(OC5CC(O)C(O)C(C)O5)C(O)C(C)O4)c(C)c(O)c3c(O)c2C(=O)[C@H]1OC1CC(OC2CC(OC3CC(C)(O)C(O)C(C)O3)C(O)C(C)O2)C(O)C(C)O1 (stereo not given in full)", "category": "active"}
